Recorded MIC for the following compounds
system: Klebsiella pneumoniae MGH-2; assay: Minimal Inhibitory Concentration by Microtitration, dilution in TSB; format: cell-based; settings: MGH2, TSB (Trypticase soy broth)

# compound, assaySystem, MIC [µg/mL]
data = [
    ("CC(=O)OC1C[C@@H](C(=O)Nc2ccc(-c3ccc(C(=O)N[C@@H](C(=O)N[C@@H]4C(=O)N5[C@@H]4SC(C)(C)[C@@H]5C(=O)O)c4ccc(O)cc4)c(=O)[nH]3)cc2)N(C(C)=O)C1 (stereo partly drawn)", "Klebsiella pneumoniae MGH-2", 12.5),
    ("CC(=O)NCCCC(=O)Nc1ccc(-c2ccc(C(=O)N[C@@H](C(=O)N[C@@H]3C(=O)N4[C@@H]3SC(C)(C)[C@@H]4C(=O)O)c3ccc(O)cc3)c(=O)[nH]2)cc1", "Klebsiella pneumoniae MGH-2", 3.1),
    ("C[C@H](NC=O)C(=O)Nc1ccc(-c2ccc(C(=O)N[C@@H](C(=O)N[C@@H]3C(=O)N4[C@@H]3SC(C)(C)[C@@H]4C(=O)O)c3ccc(O)cc3)c(=O)[nH]2)cc1", "Klebsiella pneumoniae MGH-2", 6.3),
]

###

Read-out record for Klebsiella pneumoniae MGH-2: MIC
attributeMeasured: MIC (µg/mL)

# compound, measuredResult
data = [
    ("CC1(C)S[C@@H]2[C@H](NC(=O)[C@H](NC(=O)c3ccc(-c4ccc(NC(=O)[C@@H]5CCC(=O)N5)cc4)[nH]c3=O)c3ccc(O)cc3)C(=O)N2[C@H]1C(=O)O", 6.3),
    ("CC(=O)NCCCC[C@H](NC(C)=O)C(=O)Nc1ccc(-c2ccc(C(=O)N[C@@H](C(=O)N[C@@H]3C(=O)N4[C@@H]3SC(C)(C)[C@@H]4C(=O)O)c3ccc(O)cc3)c(=O)[nH]2)cc1", 25),
    ("CC(=O)N[C@@H](C)C(=O)N[C@@H](C)C(=O)Nc1ccc(-c2ccc(C(=O)N[C@@H](C(=O)N[C@@H]3C(=O)N4[C@@H]3SC(C)(C)[C@@H]4C(=O)O)c3ccc(O)cc3)c(=O)[nH]2)cc1", 25),
    ("CC(=O)N[C@@H](CCC(N)=O)C(=O)Nc1ccc(-c2ccc(C(=O)N[C@@H](C(=O)N[C@@H]3C(=O)N4[C@@H]3SC(C)(C)[C@@H]4C(=O)O)c3ccc(O)cc3)c(=O)[nH]2)cc1", 12.5),
    ("CC(=O)N1CCC[C@H]1C(=O)Nc1ccc(-c2ccc(C(=O)N[C@@H](C(=O)N[C@@H]3C(=O)N4[C@@H]3SC(C)(C)[C@@H]4C(=O)O)c3ccc(O)cc3)c(=O)[nH]2)cc1", 12.5),
    ("CC(=O)N[C@@H](C)C(=O)Nc1ccc(-c2ccc(C(=O)N[C@@H](C(=O)N[C@@H]3C(=O)N4[C@@H]3SC(C)(C)[C@@H]4C(=O)O)c3ccc(O)cc3)c(=O)[nH]2)cc1", 3.1),
    ("COC1C[C@@H](C(=O)Nc2ccc(-c3ccc(C(=O)N[C@@H](C(=O)N[C@@H]4C(=O)N5[C@@H]4SC(C)(C)[C@@H]5C(=O)O)c4ccc(O)cc4)c(=O)[nH]3)cc2)N(C(C)=O)C1 (stereo partly shown)", 25),
    ("CC(=O)N1CC(OC=O)C[C@H]1C(=O)Nc1ccc(-c2ccc(C(=O)N[C@@H](C(=O)N[C@@H]3C(=O)N4[C@@H]3SC(C)(C)[C@@H]4C(=O)O)c3ccc(O)cc3)c(=O)[nH]2)cc1 (stereo partly shown)", 6.3),
    ("CC1(C)S[C@@H]2[C@H](NC(=O)[C@H](NC(=O)c3ccc(-c4ccc(NC(=O)CN5CCCC5=O)cc4)[nH]c3=O)c3ccc(O)cc3)C(=O)N2[C@H]1C(=O)O", 6.3),
    ("CC(=O)O[C@@H]1C[C@H](C(=O)Nc2ccc(-c3ccc(C(=O)N[C@@H](C(=O)N[C@@H]4C(=O)N5[C@@H]4SC(C)(C)[C@@H]5C(=O)O)c4ccc(O)cc4)c(=O)[nH]3)cc2)N(C(C)=O)C1", 25),
]

###

Read-out record for Klebsiella pneumoniae MGH-2: MIC
attributeMeasured: MIC (µg/mL)

# compound, attributeMeasured, unitInfo, measuredResult
measured = [
    ("CC(=O)N1CC(O)C[C@H]1C(=O)Nc1ccc(-c2ccc(C(=O)N[C@@H](C(=O)N[C@@H]3C(=O)N4[C@@H]3SC(C)(C)[C@@H]4C(=O)O)c3ccc(O)cc3)c(=O)[nH]2)cc1 (stereo partly drawn)", "MIC", "µg/mL", 12.5),
    ("CC(=O)N1CC=CC1C(=O)Nc1ccc(-c2ccc(C(=O)N[C@@H](C(=O)N[C@@H]3C(=O)N4[C@@H]3SC(C)(C)[C@@H]4C(=O)O)c3ccc(O)cc3)c(=O)[nH]2)cc1 (stereo partly drawn)", "MIC", "µg/mL", 12.5),
    ("C[C@H](NC(N)=O)C(=O)Nc1ccc(-c2ccc(C(=O)N[C@@H](C(=O)N[C@@H]3C(=O)N4[C@@H]3SC(C)(C)[C@@H]4C(=O)O)c3ccc(O)cc3)c(=O)[nH]2)cc1", "MIC", "µg/mL", 6.3),
]

###

system: Klebsiella pneumoniae MGH-2

# compound, assaySystem, MIC
data = [
    ("CN1C(=O)CC[C@H]1C(=O)Nc1ccc(-c2ccc(C(=O)N[C@@H](C(=O)N[C@@H]3C(=O)N4[C@@H]3SC(C)(C)[C@@H]4C(=O)O)c3ccc(O)cc3)c(=O)[nH]2)cc1", "Klebsiella pneumoniae MGH-2", "6.3 µg/mL"),
    ("CC(=O)N1CC(=O)C[C@H]1C(=O)Nc1ccc(-c2ccc(C(=O)N[C@@H](C(=O)N[C@@H]3C(=O)N4[C@@H]3SC(C)(C)[C@@H]4C(=O)O)c3ccc(O)cc3)c(=O)[nH]2)cc1", "Klebsiella pneumoniae MGH-2", "25 µg/mL"),
    ("CCC(=O)OC1C[C@@H](C(=O)Nc2ccc(-c3ccc(C(=O)N[C@@H](C(=O)N[C@@H]4C(=O)N5[C@@H]4SC(C)(C)[C@@H]5C(=O)O)c4ccc(O)cc4)c(=O)[nH]3)cc2)N(C(C)=O)C1 (stereo partly drawn)", "Klebsiella pneumoniae MGH-2", "12.5 µg/mL"),
]
